- ASSAY INFO: ATG_TA_CIS: Attagene CIS-FACTORIAL HepG2 Assay for human TA Basal Promoter (AID 2282964)
- TEST CONDITIONS: HepG2 Attagene CIS-factorial TA basal promoter reporter; actives raise or lower the signal
Activity calls are given as the source filed them. How the source made its calls: active means hit-call score of the fitted dose curve at least 0.9, where 1 is the maximum; inactive means score below 0.9.
Possible outcomes: active, inactive

MOLECULE	DISCRETE LABEL
CC(C)(c1ccc(O)c(-c2ccccc2)c1)c1ccc(O)c(-c2ccccc2)c1	inactive
C=CC(F)(C(F)(F)F)C(F)(F)C(F)(F)F (configuration not stated)	inactive
O=C(CCl)Nc1ccccc1	inactive
N#Cc1cccnc1	inactive
N#Cc1ccccc1Cl	inactive
O=[N+]([O-])c1c2ccccc2cc2ccccc12	inactive
CC(c1ccc(O)cc1)c1ccc(O)cc1	inactive
C[C@@H]1O[C@@H](O[C@H]2C[C@@H](O)[C@]3(CO)[C@H]4[C@H](O)C[C@]5(C)[C@@H](C6=CC(=O)OC6)CC[C@]5(O)[C@@H]4CC[C@]3(O)C2)[C@H](O)[C@H](O)[C@H]1O	inactive
CS(=O)(=O)c1ccc(C(=O)C2C(=O)CCCC2=O)c(Cl)c1COCC(F)(F)F	inactive
CCCCN(CCCC)C(=S)S	inactive
CC1(C)[C@H](/C=C2\CCSC2=O)[C@@H]1C(=O)OCc1coc(Cc2ccccc2)c1	active
c1ccc2c(c1)Oc1ccccc1O2	inactive

###

- ASSAY INFO: ATG_ISRE_CIS: Attagene CIS-FACTORIAL HepG2 Assay for human Interferon Regulatory Factor 1 (IRF1) binding to an Interferon-Stimulated Response Element (ISRE) (AID 2282948)
- TEST CONDITIONS: HepG2 ISRE cis-reporter (Attagene), mRNA transcription readout; actives raise or lower the signal
The source made the active and inactive calls. How the source made its calls: active means hit-call score of the fitted dose curve at least 0.9, where 1 is the maximum; inactive means score below 0.9.
PROPERTY MEASURED: AC50

MOLECULE	PROPERTY MEASURED	READING
CC1(C)[C@H](C(=O)O[C@H](C#N)c2cccc(Oc3ccccc3)c2)[C@@H]1/C=C(\Cl)C(F)(F)F	AC50	inactive
ClCc1ccccc1CCl	AC50	45.9 µM (active)
CCOC(=O)CCN(SN(C)C(=O)Oc1cccc2c1OC(C)(C)C2)C(C)C	AC50	inactive
CCCCOC(C)=O	AC50	inactive
O=C1c2ccccc2C(=O)C1C(=O)C(c1ccccc1)c1ccc(Cl)cc1 (configuration not stated)	AC50	20 µM (active)
Oc1cccc(-c2ccccc2)c1	AC50	inactive
CCOc1ccc(N)cc1	AC50	inactive

###

- ASSAY INFO: ATG_CRE_CIS: Attagene CIS-FACTORIAL HepG2 Assay for human cAMP Responsive Element (CRE) binding protein 3 (AID 2282926)
- TEST CONDITIONS: HepG2 CRE cis-reporter, Attagene multiplexed mRNA; actives raise or lower the signal
- Method: ATG_CIS is a cell-based, multiplexed-readout assay that uses HepG2, a human liver cell line, with measurements taken at 24 hours after chemical dosing in a 24-well plate.ATG_CRE_CIS is one of 52 assay component(s) measured or calculated from the ATG_CIS assay. […] This assay endpoint, ATG_CRE_CIS, was analyzed with bidirectional fitting relative to DMSO as the negative control and baseline of activity. […]
Active and inactive are the calls of the source. The calls were made as follows: active = hit-call score of the fitted dose curve at least 0.9, where 1 is the maximum; inactive = score below 0.9.
Outcomes: active, inactive

COMPOUND	DISCRETE LABEL
CC(C)(c1ccc(O)c(-c2ccccc2)c1)c1ccc(O)c(-c2ccccc2)c1	inactive
[Cl][Sn]([c]1ccccc1)([c]1ccccc1)[c]1ccccc1	active
CCOc1ccc(N)cc1	inactive
CC(=Cc1ccccc1)[N+](=O)[O-]	inactive
CCC[CH2][Sn]([CH2]CCC)([CH2]CCC)[CH2]CCC	inactive
CCC(C)(C#N)N=NC(C)(C#N)CC (stereo not drawn)	inactive
O=C/C(Cl)=C(/Cl)C(=O)O	inactive
CCCCC(CC)COC(=O)Cl (stereo not drawn)	inactive
Cc1ccc(OP(=O)(Oc2ccc(C)cc2C)Oc2ccc(C)cc2C)c(C)c1	inactive
O=C(O)COc1ccc(Cl)cc1	inactive
O=S1(=O)OC(c2cc(Br)c(O)c(Br)c2)(c2cc(Br)c(O)c(Br)c2)c2ccccc21	inactive
O=c1[nH]c(=O)n(Cl)c(=O)n1Cl	inactive
CCCCC(CC)C(=O)Cl (stereo not drawn)	inactive

###

- ASSAY INFO: CEETOX_H295R_MTT_cell_viability: Viability Assessment in the CeeTox HT-H295R MTT Assay (AID 2283718);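 on AC50: curve fitted both ways so AC50 may mark viability loss or gain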
Calls of active or inactive are those of the source. Rule for the calls: active = hit-call score of the fitted dose curve at least 0.9, where 1 is the maximum; inactive = score below 0.9.

MOLECULE	AC50
Cc1cc(Cl)ccc1O	inactive
C[C@]12CC[C@@H](O)C[C@@H]1CC[C@@H]1[C@@H]2CC[C@]2(C)C(=O)CC[C@@H]12	inactive
CCC[CH2][Sn]([Cl])([Cl])[CH2]CCC	inactive
CN(C)C(=S)S	inactive
c1cc[c]([Sb]([c]2ccccc2)[c]2ccccc2)cc1	37.6 µM (active)
COC(=O)Nc1cccc(OC(=O)Nc2cccc(C)c2)c1	inactive
CCOCn1c(-c2ccc(Cl)cc2)c(C#N)c(Br)c1C(F)(F)F	3.79 µM (active)
CCCCCCCCCCCCN(C)C	inactive
OC(Cc1ccccc1Cl)(Cn1[nH]cnc1=S)C1(Cl)CC1 (centres undefined)	inactive
CC(C)=CC1C(C(=O)OCc2cccc(Oc3ccccc3)c2)C1(C)C (centres undefined)	9.92 µM (active)
CCOP(=O)(OCC)OC(=CCl)c1ccc(Cl)cc1Cl	inactive
O=S1OC[C@@H]2[C@H](CO1)[C@]1(Cl)C(Cl)=C(Cl)[C@@]2(Cl)C1(Cl)Cl (some centres undefined)	inactive
CCOP(=S)(OCC)O/N=C(\C#N)c1ccccc1	inactive
Cc1cc(C(C)(C)c2ccc(O)c(C)c2)ccc1O	inactive

###

- ASSAY INFO: CEETOX_H295R_ESTRONE: CeeTox H295R High-throughput Steroidogenesis Assay for Estrone (AID 2283441);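 further: estrone secreted into medium measured by LC-MS/MS after dansyl derivatization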
- TEST CONDITIONS: actives raise or lower the signal
Activity calls are given as the source filed them. The calls were made as follows: active = hit-call score of the fitted dose curve at least 0.9, where 1 is the maximum; inactive = score below 0.9.
Labels: Y = active, N = inactive

COMPOUND	DISCRETE LABEL
Oc1c(Br)cc(Br)cc1Br	N
CCCCCCCCCCCCN(C)C	N
CC(C)=CC1C(C(=O)OCc2cccc(Oc3ccccc3)c2)C1(C)C (configuration not stated)	N
OC(Cc1ccccc1Cl)(Cn1cncn1)C1(Cl)CC1 (configuration not stated)	Y
CC(C)(C)c1cc([N+](=O)[O-])cc(C(C)(C)C)c1O	N
CC(C)(COCC1CO1)COCC1CO1 (configuration not stated)	N
O=[N+]([O-])c1ccc(Nc2ccccc2)cc1	N

###

- Read-out: CD69, CD69 (gene 969)
- ASSAY INFO: BSK_SAg_CD69: BioMAP Diversity Plus: SAg Assay for CD69 Biomarker Activity (AID 2283089);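 on AC50: cell surface CD69 protein quantified by ELISA with fluorescence detection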
- TEST CONDITIONS: primary human HUVEC with PBMC; actives raise or lower the signal
Active and inactive are the calls of the source. Rule for the calls: active = hit-call score of the fitted dose curve at least 0.9, where 1 is the maximum; inactive = score below 0.9.
PROPERTY MEASURED: AC50

COMPOUND	READING
[Cl][Sn]([c]1ccccc1)([c]1ccccc1)[c]1ccccc1	0.176 µM (active)
OC(Cc1ccccc1Cl)(Cn1cncn1)C1(Cl)CC1 (centres undefined)	inactive
N#CCCC(Br)(C#N)CBr (centres undefined)	17 µM (active)
Cc1ccccc1OP(=O)(Oc1ccccc1C)Oc1ccccc1C	13.8 µM (active)
CC(C)(C)c1cc([N+](=O)[O-])cc(C(C)(C)C)c1O	0.322 µM (active)
Cc1cccc(OP(=O)(Oc2cccc(C)c2)Oc2cccc(C)c2)c1	inactive
C#CCOC(=O)/C=C(C)/C=C/CC(C)CCCC(C)C (centres undefined)	20 µM (active)
O=[N+]([O-])c1ccc(Nc2ccccc2)cc1	inactive
CC(C)(COCC1CO1)COCC1CO1 (centres undefined)	20 µM (active)
Cc1cc(Cl)ccc1OC(C)C(=O)O (centres undefined)	inactive
Cc1ccc(OP(=O)(Oc2ccc(C)cc2C)Oc2ccc(C)cc2C)c(C)c1	20 µM (active)
O=C1C=CC(=O)c2ccccc21	0.836 µM (active)
Cc1ccc2nc3sc(=O)sc3nc2c1	inactive
OCCN(CCO)CCO	inactive
c1ccc2sc(SNC3CCCCC3)nc2c1	inactive
CC(C=O)Cc1ccc2c(c1)OCO2 (centres undefined)	inactive
Cc1cc(C)cc(C)c1	inactive
N#Cc1cccnc1	inactive
C=CC(Cl)CCl (centres undefined)	inactive
Oc1cccc(-c2ccccc2)c1	inactive
O=S(=O)(c1ccc(Cl)cc1)c1cc(Cl)c(Cl)cc1Cl	inactive
O=C(Cc1ccccc1)OCCc1ccccc1	inactive
CCC(C)(C#N)N=NC(C)(C#N)CC (centres undefined)	inactive
CCCCCCCCCCCCc1cccc(S(=O)(=O)O)c1	inactive
CCCCCCCCCCCCN(C)C	inactive
Clc1cccc(Cl)c1Cl	inactive
O=C(O)C1(c2ccc3c(c2)OC[C@H](Cc2ccc(-c4ccccc4)cc2)[C@H]3O)CCCC1	inactive
c1ccc(-c2cccc(-c3ccccc3)c2)cc1	30.9 µM (active)
CCOC(=O)CC(=O)CCl	27 µM (active)
